Could you please report measured residual activity for the items listed next?
Biological target: RPS6KA3 KD1 KD2 (human) (UniProt P51812)
Sequence (P51812 whole entry, looked up): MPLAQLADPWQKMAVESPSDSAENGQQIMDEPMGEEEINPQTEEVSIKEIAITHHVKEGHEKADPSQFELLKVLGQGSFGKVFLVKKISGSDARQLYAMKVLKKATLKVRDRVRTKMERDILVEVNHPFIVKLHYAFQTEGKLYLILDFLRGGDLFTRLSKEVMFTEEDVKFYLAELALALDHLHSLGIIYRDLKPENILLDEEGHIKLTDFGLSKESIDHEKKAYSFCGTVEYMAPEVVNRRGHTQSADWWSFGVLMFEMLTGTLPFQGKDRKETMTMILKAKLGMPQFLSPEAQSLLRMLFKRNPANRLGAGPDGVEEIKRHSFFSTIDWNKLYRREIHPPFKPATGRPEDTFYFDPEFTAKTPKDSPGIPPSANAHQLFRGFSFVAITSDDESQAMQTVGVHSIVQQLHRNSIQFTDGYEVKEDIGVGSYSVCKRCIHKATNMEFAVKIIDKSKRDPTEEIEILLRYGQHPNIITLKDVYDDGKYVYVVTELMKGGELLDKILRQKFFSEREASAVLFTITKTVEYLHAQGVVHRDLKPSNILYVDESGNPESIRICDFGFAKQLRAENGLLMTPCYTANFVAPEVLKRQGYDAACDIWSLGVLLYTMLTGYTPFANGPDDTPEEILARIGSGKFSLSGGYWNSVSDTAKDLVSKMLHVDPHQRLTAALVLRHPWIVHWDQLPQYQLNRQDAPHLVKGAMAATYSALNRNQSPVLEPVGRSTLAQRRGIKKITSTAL
Assay: radiometric filter-binding kinase assay
Details: compound 1.0 µM

As a guide, the following entries are already answered.
Cc1cccc(-c2nn(C(=S)Nc3ccccc3)cc2-c2ccnc3ccccc23)n1 : 109%
CCCC(CCC)C(=O)O : 94%
O=C(NOC[C@H](O)CO)c1ccc(F)c(F)c1Nc1ccc(I)cc1Cl : 104%
Cc1ccc(Sc2cnc(Nc3cccc(Br)n3)s2)cc1C(=O)N1CCN(C(=O)CN)CC1 : 64%

For each entry beneath this line, provide reported residual activity.
1. C=C1C(=O)OC2C1CC/C(C)=C/CCC1(C)OC21 (stereo unspecified)
2. O=C(NCCCNc1nc(Nc2cccc(CN3CCOCC3)c2)ncc1C1CC1)C1CCC1
3. CCc1cncnc1N1CCN(Cc2nc3cc(C(F)(F)F)ccc3[nH]2)CC1
4. CN1C(=O)[C@@H](Cc2c[nH]c3ccccc23)NC1=S
5. O=c1c(O)c(-c2ccc(O)c(O)c2)oc2cc(O)c(O)c(O)c12
6. Oc1ccc2ccccc2c1SSc1c(O)ccc2ccccc12
7. COc1ccc(-n2ncc3cnc(Nc4cc(OC)c(OC)c(OCCCN5CCN(C)CC5)c4)nc32)cc1

Output line:
1: 102%; 2: 56%; 3: 67%; 4: 91%; 5: 22%; 6: 12%; 7: 9%

For each entry beneath this line, provide reported residual activity.
1. COc1ccc(N(C(=O)Nc2c(C)cccc2C)c2cc(Nc3ccc(N4CCN(C)CC4)cc3)ncn2)c(OC)c1
2. CNc1nc(-c2ccc3c(N)n[nH]c3c2)cc(N2C[C@@H](C(=O)NC3CCCCC3)CC[C@H]2C)n1
3. C[C@H]1CCCC(=O)CCC/C=C/c2cc(O)cc(O)c2C(=O)O1

Output line:
["54%", "79%", "80%"]
